Data origin: patent US11008334B2

- study_target: K-RasG12C (1-169) (Homo sapiens, UniProt P01116, G12C)
- Construct: Un-tagged recombinant K-Ras G12C (1-169) at 4 μM in Buffer A; hexahistidine (cleaved yes); made in house; host or cells: Escherichia coli BL21 (DE)
- Sequence (P01116 1-169 isoform P01116-2 G12C): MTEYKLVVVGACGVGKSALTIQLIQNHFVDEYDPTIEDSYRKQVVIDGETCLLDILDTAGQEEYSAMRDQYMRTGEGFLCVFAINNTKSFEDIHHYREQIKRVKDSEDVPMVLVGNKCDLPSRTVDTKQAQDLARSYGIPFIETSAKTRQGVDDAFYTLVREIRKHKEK
- assay_summary: Mass spectrometric screen for extent of covalent labeling
- Type: binding
- particulars: 6 h, 10 micromolar, 6 hrs; read-out: Percent reduction in activity of compound at 10 micromolar relative to control (no compound), 6 hrs
# percent covalent labeling at 10 µM annotations

Sample records with percent covalent labeling at 10 µM:
>  <molecule>
C=CS(=O)(=O)NC1CCN(C(=O)CNc2cc(-c3ccccc3)c(Cl)cc2OC)CC1 [Ras-082]

>  <study_target>
K-RasG12C (1-169) (Homo sapiens, UniProt P01116, G12C)

>  <percent covalent labeling at 10 µM>
20 to 40%

$$$$
>  <molecule>
C=CS(=O)(=O)Nc1cc(-c2cccs2)n[nH]1 [JO-02-38B]

>  <study_target>
K-RasG12C (1-169) (Homo sapiens, UniProt P01116, G12C)

>  <percent covalent labeling at 10 µM>
≤ 5%

$$$$
>  <molecule>
C=CS(=O)(=O)NC1CCN(C(=O)COc2cc(Cl)c(Cl)cc2I)CC1 [Ras-053]

>  <study_target>
K-RasG12C (1-169) (Homo sapiens, UniProt P01116, G12C)

>  <percent covalent labeling at 10 µM>
5 to 20%

$$$$
>  <molecule>
C=CS(=O)(=O)C1CCC2(CC1)CCN(C(=O)COc1ccc(Cl)cc1Cl)C2 (centres unmarked) [JO-02-112B]

>  <study_target>
K-RasG12C (1-169) (Homo sapiens, UniProt P01116, G12C)

>  <percent covalent labeling at 10 µM>
≤ 5%

$$$$
>  <molecule>
C=CS(=O)(=O)NC1CCN(C(=O)COc2ccc(Cl)cc2NC(C)=O)CC1 [Ras-016]

>  <study_target>
K-RasG12C (1-169) (Homo sapiens, UniProt P01116, G12C)

>  <percent covalent labeling at 10 µM>
≤ 5%

$$$$
>  <molecule>
CN(C)C/C=C/C(=O)NC1CCN(C(=O)COc2ccc(Cl)cc2Cl)CC1 [Ras-007]

>  <study_target>
K-RasG12C (1-169) (Homo sapiens, UniProt P01116, G12C)

>  <percent covalent labeling at 10 µM>
≤ 5%

$$$$

Lookup: // fetch percent covalent labeling at 10 µM for C=CS(=O)(=O)NC1CCN(C(=O)COc2cc(C(=O)NCCO)c(Cl)cc2Cl)CC1 [Ras-049] ; system: K-RasG12C (1-169) (Homo sapiens, UniProt P01116, G12C)
Found: ≤ 5%

Lookup: // fetch percent covalent labeling at 10 µM for C=CS(=O)(=O)NC1CCN(C(=O)CNc2cc(OC)c(Cl)cc2OC)CC1 [Ras-064] ; system: K-RasG12C (1-169) (Homo sapiens, UniProt P01116, G12C)
Found: ≤ 5%

Lookup: // fetch percent covalent labeling at 10 µM for C=CC(=O)N1CCN(C(=O)CNc2cc(Cl)c(Cl)cc2OC)CC1 [Ras-062] ; system: K-RasG12C (1-169) (Homo sapiens, UniProt P01116, G12C)
Found: ≤ 5%

Lookup: // fetch percent covalent labeling at 10 µM for C=CS(=O)(=O)NC1CCN(C(=O)COc2cc(NS(C)(=O)=O)c(Cl)cc2Cl)CC1 [Ras-061] ; system: K-RasG12C (1-169) (Homo sapiens, UniProt P01116, G12C)
Found: ≤ 5%

Lookup: // fetch percent covalent labeling at 10 µM for C=CS(=O)(=O)NC1CCN(C(=O)CNc2cc(CC)c(Cl)cc2OC)CC1 [Ras-085] ; system: K-RasG12C (1-169) (Homo sapiens, UniProt P01116, G12C)
Found: 20 to 40%

====

- study_target: K-RasG12C (1-169) (Homo sapiens, UniProt P01116, G12C)
- Construct: Un-tagged recombinant K-Ras G12C (1-169) at 4 μM in Buffer A; hexahistidine (cleaved yes)
- assay_summary: Disulfide library (tethering) screen, covalent modification by mass spectrometry
- particulars: 200 micM BME; read-out: Potency/ Labeling (EC50 at 200 micM BME) Tethering
pEC50: −log10 of the molar value.
quantity_measured: pEC50

Lookup: Name the recorded pEC50 of the molecule listed here: O=C(NCCS)C1CCN(C(=O)COc2ccc(Cl)cc2Cl)CC1
Found: 4.22 to 4.40

====

- study_target: K-RasG12C (1-169) (Homo sapiens, UniProt P01116, G12C)
- Construct: Un-tagged recombinant K-Ras G12C (1-169) at 4 μM in Buffer A; hexahistidine (cleaved yes); made in house; host or cells: Escherichia coli BL21 (DE)
- assay_summary: Mass spectrometric screen for extent of covalent labeling
- Format: binding
- particulars: 24 h, 10 micromolar, 24 hrs; read-out: Percent reduction in activity of compound at 10 micromolar relative to control (no compound), 24 hrs
quantity_measured: percent covalent labeling at 10 µM

Sample records with percent covalent labeling at 10 µM:
>  <compound>
C=CS(=O)(=O)NC1CCN(C(=O)COc2ccc(Cl)cc2C(F)(F)F)CC1

>  <percent covalent labeling at 10 µM>
5 to 20%

$$$$
>  <compound>
C=CS(=O)(=O)NC1CCN(C(=O)COc2c(N)cc(Cl)cc2Cl)CC1 [UP-I-185b]

>  <percent covalent labeling at 10 µM>
5 to 20%

$$$$
>  <compound>
C=CS(=O)(=O)NC1CCN(C(=O)CNc2cc(CC)c(Cl)cc2OC)CC1

>  <percent covalent labeling at 10 µM>
> 60%

$$$$

Lookup: Name the recorded percent covalent labeling at 10 µM of the compound listed here: C=CC(=O)NC1CCN(C(=O)Cn2cnc3ccccc32)CC1
Found: ≤ 5%

Lookup: Name the recorded percent covalent labeling at 10 µM of the compound listed here: C=CC(=O)N1CC[C@H](NC(=O)CNc2cc(Cl)c(Cl)cc2I)C1 [JO-02-157B (S)]
Found: 5 to 20%

====

# percent covalent labeling at 10 µM annotations
- study_target: K-RasG12C (1-169) (Homo sapiens, UniProt P01116, G12C)
- Construct: Un-tagged recombinant K-Ras G12C (1-169) at 4 μM in Buffer A; hexahistidine (cleaved yes); made in house; host or cells: Escherichia coli BL21 (DE)
- assay_summary: Mass spectrometric screen for extent of covalent labeling
- Format: binding
- particulars: 6 h, 10 micromolar, 6 hrs; read-out: Percent reduction in activity of compound at 10 micromolar relative to control (no compound), 6 hrs

Sample records with percent covalent labeling at 10 µM:
>  <smiles_entry>
C=CC(=O)N1CCN(C(=O)CNc2cc(I)c(Cl)cc2O)CC1

>  <endpoint_result>
20 to 40%

$$$$
>  <smiles_entry>
C=CS(=O)(=O)NC1CCN(C(=O)COc2cc(NC(C)=O)c(Cl)cc2Cl)CC1

>  <endpoint_result>
≤ 5%

$$$$
>  <smiles_entry>
C=CS(=O)(=O)NC1CCN(C(=O)COc2ccc(Cl)cc2C(F)(F)F)CC1

>  <endpoint_result>
≤ 5%

$$$$
>  <smiles_entry>
C=CS(=O)(=O)NC1CCN(C(=O)CNc2cc(Cl)c(Cl)cc2I)CC1

>  <endpoint_result>
5 to 20%

$$$$

Lookup: Name the recorded percent covalent labeling at 10 µM of the molecule listed here: C=CS(=O)(=O)NC1CCN(C(=O)COc2ccc(Cl)cc2CNC(C)=O)CC1
Found: ≤ 5%

====

- study_target: K-RasG12C (1-169) (Homo sapiens, UniProt P01116, G12C)
- Construct: Un-tagged recombinant K-Ras G12C (1-169) at 4 μM in Buffer A; hexahistidine (cleaved yes); made in house; host or cells: Escherichia coli BL21 (DE)
- assay_summary: Mass spectrometric screen for extent of covalent labeling
- Format: binding
- particulars: 24 h, 10 micromolar, 24 hrs; read-out: Percent reduction in activity of compound at 10 micromolar relative to control (no compound), 24 hrs
quantity_measured: percent covalent labeling at 10 µM

Sample records with percent covalent labeling at 10 µM:
>  <molecule>
C#Cc1cc(OCC(=O)N2CCC(NS(=O)(=O)C=C)CC2)c(Cl)cc1Cl

>  <endpoint_result>
40 to 60%

$$$$
>  <molecule>
O=C(COc1ccc(Cl)cc1Cl)N1CCC(NCC2CO2)CC1 (stereo not shown) [JO-02-77A]

>  <endpoint_result>
≤ 5%

$$$$
>  <molecule>
C=CS(=O)(=O)NC1CCN(C(=O)CSc2ccc(Cl)cc2Cl)CC1

>  <endpoint_result>
5 to 20%

$$$$
>  <molecule>
C=CS(=O)(=O)NC1CCN(C(=O)CNc2cc(OC)c(Cl)cc2OC)CC1

>  <endpoint_result>
20 to 40%

$$$$
>  <molecule>
C=CC(=O)NCCCNC(=O)COc1ccc(Cl)cc1Cl [JO-02-37B]

>  <endpoint_result>
≤ 5%

$$$$

Lookup: Name the recorded percent covalent labeling at 10 µM of the molecule listed here: C=CS(=O)(=O)NC1CCN(C(=O)CSc2nc3cc(C)ccc3[nH]2)CC1 [UP-I-160B]
Found: ≤ 5%

Lookup: Name the recorded percent covalent labeling at 10 µM of the molecule listed here: C=CS(=O)(=O)NC1CCN(C(=O)COc2ncnc3sc(C)cc23)CC1 [UP-I-154K]
Found: ≤ 5%

Lookup: Name the recorded percent covalent labeling at 10 µM of the molecule listed here: C=CS(=O)(=O)N1CCC(Nc2cc(-c3cc(Cl)c(Cl)cc3I)ccn2)CC1
Found: ≤ 5%
